Source listed as ChEMBL document CHEMBL1134098.

Biological target: GABA-A receptor; alpha-3/beta-3/gamma-2 (Homo sapiens) (UniProt P18507+P28472+P34903)
Assay: Maximal response relative to Gamma-aminobutyric acid A against human Gamma-aminobutyric-acid A receptor alpha-3-beta-3-gamma-2 expressed in Xenopus oocytes
Format: functional, cell-based
Details: Oocyte
Label key: satisfied means Max under 50; not satisfied means Max of 50 or more.

Field: example entries. Status: answers known.
NCCCC(=O)O	not satisfied
O=S(=O)(O)C1CCNCC1	not satisfied
NCCC[Se](=O)O	satisfied

Input line: Field: below-cutoff. Rule: recorded Max strictly less than 50. Subject: O=C(O)C1=CCNCC1
Output line: not satisfied

Input line: How about this molecule: O=[PH](O)C1CCNCC1
Output line: satisfied

Input line: How about this molecule: O=C(O)Cc1c[nH]cn1
Output line: not satisfied

Input line: How about this molecule: O=C(O)C1CCNCC1
Output line: satisfied

Input line: How about this molecule: O=[Se](O)C1CCNCC1
Output line: satisfied
